- Tested on: Plasmodium falciparum
- ASSAY_REMARKS: GSK_TCMDC: Inhibition of Plasmodium falciparum 3D7 in whole erythrocytes, using parasite LDH activity as an index of growth.
- Type: functional, organism-based
- RUN_PARAMETERS: Plasmodium falciparum, 3D7
Under this convention, condition met denotes XC50 strictly below 0.8 µM and condition not met denotes XC50 at or above 0.8 µM.

The following compounds have reported results that may help.
FC(F)(F)c1ccc2[nH]ccc(=NN=Cc3cccc(Cl)c3)c2c1 : condition not met
CCCCc1ccc2ncc(C(=O)OCC)c(O)c2c1 : condition met
CCCCNc1cc(C)nc(NCc2ccccc2)n1 : condition not met
O=C(c1cccc(-c2cccc(-c3nc4ccccc4[nH]3)c2)c1)N1CCCCC1CN1CCC(O)C1 (stereo not given) : condition met
C=CCN1C(=O)C(=Cc2cc(Br)ccc2O)SC1=Nc1ccccc1 : condition not met
CCN(CCCN1CCCCC1)c1cc(C)nc(Nc2ccc(OC)cc2)n1 : condition met
CCCNCc1ccc(-c2ccc(CN(CC3CCCO3)C(=O)C3CC(=O)c4ccccc43)cc2)nc1 (stereo not given) : condition not met
COc1cccc(OC)c1CN1CCC(N(C)CCCCCCCCN2CCC(OC(=O)Nc3ccccc3-c3ccccc3)CC2)CC1 : condition met

Let us examine a further case.
Report whether reported XC50 is lower than 0.8 µM (strictly) for Cc1cccc(C(O)CNc2ccnc(Nc3cccc(-c4csc(C)n4)c3)n2)c1 (stereo not given)
condition met

* * *

- Test system: Plasmodium falciparum
- ASSAY_REMARKS: GSK_TCMDC: Inhibition of Plasmodium falciparum 3D7 in whole erythrocytes, using parasite LDH activity as an index of growth.
- Assay type: functional, organism-based
- RUN_PARAMETERS: Plasmodium falciparum, 3D7
Under this convention, condition met denotes XC50 strictly below 900 nM and condition not met denotes XC50 at or above 900 nM.

CN(C)C(CNc1ncnc2cc(Cl)ccc12)Cc1ccccc1 (stereo not given) : condition met
Cc1cccc(C)c1/N=C1\NC(=S)N(c2cccc(Cl)c2)C12CCC(C(C)(C)C)CC2 (stereo not given) : condition met
O=C(Nc1cccc(CN2CCCN(Cc3ccccc3)CC2)c1)c1cc2ccccc2s1 : condition not met
Cc1cccc2nc(-c3cccc(-c4cccc(NC(=O)NCc5cccc(F)c5)c4)c3)[nH]c12 : condition met

Let us examine a further case.
Report whether reported XC50 is lower than 900 nM (strictly) for CC(C(=O)NC1CCN(c2ccnc(Nc3ccc(F)cc3)n2)C1)c1ccc(Cl)cc1 (stereo not given)
condition met

* * *

Recorded XC50 values for a group of compounds are listed next.
- System: Plasmodium falciparum
- ASSAY_REMARKS: GSK_TCMDC: Inhibition of Plasmodium falciparum 3D7 in whole erythrocytes, using parasite LDH activity as an index of growth.
- Format: functional, organism-based
- RUN_PARAMETERS: Plasmodium falciparum, 3D7
Only the number, expressed in nM, is required.

Query (compound): `Nc1ncc(-c2ccsc2)c2ccc(-c3cc(NCc4ccccc4)ncn3)cc12` ; field requested: XC50
861

Query (compound): CCCNCc1ccc(-c2ccc(CN(CC3CCCO3)C(=O)COc3ccccc3Cl)cc2)nc1 (stereo not given) ; field requested: XC50
1180

* * *

- Test system: Plasmodium falciparum
- ASSAY_REMARKS: GSK_TCMDC: Inhibition of Plasmodium falciparum 3D7 in whole erythrocytes, using parasite LDH activity as an index of growth.
- Type: functional, organism-based
- RUN_PARAMETERS: Plasmodium falciparum, 3D7
Under this convention, class 1 denotes XC50 strictly below 900 nM and class 0 denotes XC50 at or above 900 nM.

CCS(=O)(=O)c1ccc(OC)c(Nc2nccc(-c3c(-c4cccc(NC(=O)c5c(F)cccc5F)c4)nn4ncccc34)n2)c1 : class 0
CCC[C@@H]([C@@H](CC1CCCCC1)C(=O)N[C@H](C(=O)Nc1nccs1)C(C)(C)SCCNC(=O)OCC)N(O)C=O : class 1
COc1ccc2c(c1)c(C1CCN(CCCCNC(=O)c3ccc(-c4ccc(C(F)(F)F)cc4)cc3)CC1)cn2C(C)C : class 1
COc1ccc2ncc(Cl)c(CCN3C[C@H](CNCc4ccc5c(n4)NC(=O)CS5)[C@H](O)C3)c2n1 : class 0
CC(Oc1cc(-n2cnc3ccc(NC(=O)CCN4CCCCC4)cc32)sc1C(N)=O)c1ccccc1Cl (stereo not drawn) : class 1

Let us examine a further case.
Report whether reported XC50 is lower than 900 nM (strictly) for CC1CCCC(NCc2c(O)ccc3ccccc23)C1 (stereo not drawn)
class 0

* * *

- Tested on: Plasmodium falciparum
- ASSAY_REMARKS: GSK_TCMDC: Inhibition of Plasmodium falciparum 3D7 in whole erythrocytes, using parasite LDH activity as an index of growth.
- Assay type: functional, organism-based
- RUN_PARAMETERS: Plasmodium falciparum, 3D7
Under this convention, Yes denotes XC50 strictly below 0.7 µM and No denotes XC50 at or above 0.7 µM.

The following compounds have reported results that may help.
O=C(Nc1ccsc1)Nc1cccc(-c2cccc(-c3nc4cc(F)ccc4[nH]3)c2)c1 : Yes
Cc1cccc(C)c1CNc1nc(N2CCOCC2)cc2c(C)c(C)[nH]c12 : No
Cc1cc(Oc2ccc(-n3ccnc3)cc2)nc(N2CCN(CCCN3CCCC3)CC2)n1 : No
O=C(Nc1ccc2c(ccn2C2CCCN(Cc3cc(F)cc(F)c3F)CC2)c1)c1ccco1 (stereo not given) : Yes

Report whether reported XC50 is lower than 0.7 µM (strictly) for `COc1cc2nc(N3CCC(CNC(=O)c4ccc(-c5ccc(Cl)cc5)cc4)CC3)nc(N)c2cc1OC`
Yes

* * *

- Test system: Plasmodium falciparum
- ASSAY_REMARKS: GSK_TCMDC: Inhibition of Plasmodium falciparum 3D7 in whole erythrocytes, using parasite LDH activity as an index of growth.
- Type: functional, organism-based
- RUN_PARAMETERS: Plasmodium falciparum, 3D7
Recorded XC50 values for a group of compounds are listed next.
Only the number, expressed in nM, is required.

Recorded results for 5 compounds are shown here.
OC(CNc1ccnc(Nc2ccc(Cl)cc2)n1)c1ccccc1C(F)(F)F (stereo not given) : 788
Cc1cc(N2CCCC2)nc(Nc2ccc(NC(=O)c3ccc(Br)o3)cc2)n1 : 623
COc1cccc2cc(C(=O)N[C@@H](CC(C)C)C(=O)N[C@H](C=NN(C)C(=O)OC(C)(C)C)Cc3ccccc3)oc12 : 262
Cc1nn(C2CCS(=O)(=O)C2)c(C)c1C1Nc2ccccc2C(=O)N1Cc1ccc2c(c1)OCO2 (stereo not given) : 511
CC(C)CNCc1cccc(-c2ccc(CN(C(=O)Nc3ccccc3)C3CCN(Cc4ccccc4)CC3)cc2)c1 : 476

# returns recorded XC50 (system: Plasmodium falciparum) for `Cc1cc(F)ccc1-c1nc(NCCCNCCc2ccccc2)nc2c1ccc(=O)n2-c1c(F)cccc1F`
186

# returns recorded XC50 (system: Plasmodium falciparum) for `CN(C)CCCNCc1ccc(-c2ccc(CNCCc3ccccc3)cc2)cc1`
994

# returns recorded XC50 (system: Plasmodium falciparum) for `Nc1cccc(-c2ccc3ccnc(N)c3c2)c1`
796

# returns recorded XC50 (system: Plasmodium falciparum) for `Cc1cccc2nc(-c3cccc(-c4ccc(NC(=O)c5cccc(C(N)=O)c5)cc4)c3)[nH]c12`
410

# returns recorded XC50 (system: Plasmodium falciparum) for `Cc1cc(N2CCCC2)nc(Nc2ccc(NC(=O)C(C)C)cc2)n1`
1100

* * *

Recorded XC50 values for a group of compounds are listed next.
- Test system: Plasmodium falciparum
- ASSAY_REMARKS: GSK_TCMDC: Inhibition of Plasmodium falciparum 3D7 in whole erythrocytes, using parasite LDH activity as an index of growth.
- Format: functional, organism-based
- RUN_PARAMETERS: Plasmodium falciparum, 3D7
Only the number, expressed in nM, is required.

COc1ccc2nccc([C@@H](O)CN3CCC(NCc4nc5c(cc4Cl)OCC(=O)N5)C(F)C3)c2c1 (some centres undefined) : 1320

Query (compound): `CCN(CCCN1CCCCC1)c1cc(C)nc(Nc2ccc(C)c(F)c2)n1` ; field requested: XC50
273

Query (compound): `Cc1nc(NCCc2c[nH]cn2)cc(NCc2ccccc2)n1` ; field requested: XC50
833

Query (compound): `CN1CCN(Cc2c(O)ccc3c(=O)c(Oc4ccc(C(C)(C)C)cc4)c(C(F)(F)F)oc23)CC1` ; field requested: XC50
812

Query (compound): `Cc1cc(NCC(c2ccccc2)c2ccccc2)nc(NCC2CCCCC2)n1` ; field requested: XC50
507

Query (compound): `CC(=O)Nc1cccc(C(=O)Nc2ccc(-c3cccc(-c4nc5cc(C(F)(F)F)ccc5[nH]4)c3)cc2)c1` ; field requested: XC50
148

Query (compound): `COCCCNc1nc2cc(OC)c(OC)cc2c2nc(-c3ccccc3)nn12` ; field requested: XC50
192

Query (compound): `O=C(Nc1ccc(F)cc1)c1ccc(C(=O)NC2CCN(CC3CCCCC3)CC2)cc1` ; field requested: XC50
544

Query (compound): `Cc1cccc2nc(-c3ccc(-c4cccc(NC(=O)C(=O)c5cccn5C)c4)cc3)[nH]c12` ; field requested: XC50
976
